assay: NCI Yeast Anticancer Drug Screen. Data for the bub3 strain (AID 167); conditions: S. cerevisiae bub3 mutant strain, at 50.0 µM, stronger effect = higher value
About 79,000 compounds went through this panel and 15% of them were active in at least one assay; those are over-represented in the sample as a whole. Calls of active or inactive are those of the source. No stated cut-off is given here; in the data, active means growth inhibition above about 70%; inactive means the rest.
Observable: growth inhibition

Query: Return growth inhibition (reported value) for this compound: "CN(C(=O)c1cccs1)C(=S)N1CCN(c2ccccc2)CC1"
Result: 61.3% (inactive)

Query: Return growth inhibition (reported value) for this compound: CC1Cc2cc(O)c(O)cc2-c2cc(O)c(O)cc2CC1C (centres undefined)
Result: 79.4% (active)

Query: Return growth inhibition (reported value) for this compound: "COc1cc2c(cc1OC)-c1nc(Nc3ccccc3)sc1CC2"
Result: 78.5% (active)

Query: Return growth inhibition (reported value) for this compound: "CC1=NOC(=O)/C1=C/C=C/c1ccccc1"
Result: 60.8% (inactive)

###

Assay: NCI Yeast Anticancer Drug Screen. Data for the bub3 strain (AID 167)
Conditions: S. cerevisiae bub3 mutant strain, at 50.0 µM (retest, dose inferred, filed as 5.0)
Description: Growth inhibition of yeast strains with defined genetic alterations is measured as a screen for potential anti-cancer activity. Selected strains with alterations in DNA damage repair or cell cycle control were exposed to compounds and growth inhibition was measured relative to vehicle treated controls. The strain used in this assay is bub3
The panel holds about 79,000 compounds, 15% with a hit somewhere; the sample as a whole holds those more often. Activity calls are given as the source filed them. Rule as the data show it: active = growth inhibition above about 70%; inactive = the rest.
Hi! Could you answer with just one of these? label 1 = active, label 0 = inactive

Query: // return assay outcome for "C/C(=N\O)c1ccc2c3c(ccc([N+](=O)[O-])c13)CC2"
Result: label 0

Query: // return assay outcome for "CCN(CC)CCNc1ccc(C)c2sc3c(OC)cccc3c(=O)c12"
Result: label 0

Query: // return assay outcome for "Cc1cc(NCCCCCCCCCC[n+]2c(C)cc(N)c3ccccc32)c2ccccc2n1"
Result: label 1

Query: // return assay outcome for CC(=O)OCC1OC(Sc2ccc3ccccc3c2)C(OC(C)=O)C(OC(C)=O)C1OC(C)=O (stereo unspecified)
Result: label 0

Query: // return assay outcome for "CCOC(=O)c1cc(C)c(O)c(C(=O)OCC)c1"
Result: label 0

Query: // return assay outcome for "COc1cc(-c2nn3c(=O)n(-c4ccc(Cl)cc4)c(=O)nc3s2)cc(OC)c1OC"
Result: label 0

Query: // return assay outcome for "O=C(O)c1cc2ccc3cccc4ccc(c1)c2c34"
Result: label 1

Query: // return assay outcome for "CCCCCCCCCCCCNCc1ccc(Cl)c(Cl)c1"
Result: label 1

Query: // return assay outcome for COc1ccc(C(=O)C(c2ccc(OC)cc2)C2(O)C(=O)Nc3c(C)cc(Cl)cc32)cc1 (stereo unspecified)
Result: label 0

Query: // return assay outcome for "C/C(=N\Oc1ncc([N+](=O)[O-])c(O/N=C(\C)c2ccccc2)n1)c1ccccc1"
Result: label 0

Query: // return assay outcome for "COc1ccc2ccc(=O)oc2c1CC=C(C)C"
Result: label 1

Query: // return assay outcome for "N=Nc1c(OC(=O)Nc2ccccc2)[nH]c2ccccc12"
Result: label 1

Query: // return assay outcome for COc1cc2c(cc1O)C1C(O)C(O)C=C3CCN(C2)C31 (stereo unspecified)
Result: label 1

Query: // return assay outcome for "C[C@@]12C[C@@H](Br)[C@H](Br)C[C@]1(C)O2"
Result: label 0

Query: // return assay outcome for "ClC(Cl)(Cl)C(c1ccccc1)c1ccccc1"
Result: label 0

Query: // return assay outcome for "CCOc1ccccc1/C=C1\C=Nc2ccccc21"
Result: label 0

###

Can you tell me growth inhibition for the items I'm about to list?
assay: NCI Yeast Anticancer Drug Screen. Data for the cln2 rad14 strain (AID 165);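 further: 0% = growth equal to vehicle treated cultures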; conditions: S. cerevisiae cln2 rad14 strain, at 5.0 µM (retest, dose inferred, filed as 0.5), stronger effect = higher value
The panel holds about 79,000 compounds, 15% with a hit somewhere; the sample as a whole holds those more often.
// note: answer is a bare numeric in %

Query: Return growth inhibition (reported value) for this compound: "ClC(Cl)(Cl)C(c1ccccc1)c1ccccc1"
Result: 4

Query: Return growth inhibition (reported value) for this compound: "CCC[CH2][Sn]([CH2]CCC)([O]C(=O)c1ccc(C)c(N)c1)[O]C(=O)c1ccc(C)c(N)c1"
Result: 96

Query: Return growth inhibition (reported value) for this compound: "CC(=O)/C(=C/n1c(=S)[nH]c2ccc([N+](=O)[O-])cc21)C(=O)Nc1ccc(Cl)cc1"
Result: -21

Query: Return growth inhibition (reported value) for this compound: CCCCCCCCCCCCCCCCn1cc(C(O)CN(C)C)c2ccccc21 (centres undefined)
Result: -3

Query: Return growth inhibition (reported value) for this compound: "CCCCCC(=O)NNc1ccccc1"
Result: 0

Query: Return growth inhibition (reported value) for this compound: "O=C(/C=C/c1ccc2c(c1)OCO2)c1ccc(O)cc1"
Result: -7

Query: Return growth inhibition (reported value) for this compound: "Cc1ccc(CN2CC(=O)N3Cc4ccccc4CN3C(=O)C2)cc1"
Result: 0

Query: Return growth inhibition (reported value) for this compound: "CC[N+](C)(CC)CCCOC(=O)c1ccccc1Oc1ccc(C)cc1"
Result: -4

Query: Return growth inhibition (reported value) for this compound: "c1ccc2c(CCc3ccncc3)c[nH]c2c1"
Result: -13

###

assay: NCI Yeast Anticancer Drug Screen. Data for the rad50 strain (AID 155);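 further: 0% = growth of vehicle-only cultures of the same strain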; conditions: S. cerevisiae rad50 strain growth inhibition; at 50.0 µM; stronger effect = higher value
About 79,000 compounds went through this panel and 15% of them were active in at least one assay; those are over-represented in the sample as a whole.
Each entry gets 0 if its growth inhibition stays under 50%, and 1 if its growth inhibition is 50% or above.

Query: Does growth inhibition meet or surpass 50% for "C[C@]12CC[C@@H]3c4cc(OCC(F)(F)F)c(O)cc4CC[C@H]3[C@@H]1CC[C@@H]2O" ?
Result: 1

Query: Does growth inhibition meet or surpass 50% for "COc1ccc(N=Nc2ccc3oc(=O)c(C(=O)Nc4ccc(OC)cc4)cc3c2)cc1" ?
Result: 1

Query: Does growth inhibition meet or surpass 50% for "Cc1cc(C)nc(CCSS(=O)(=O)O)c1" ?
Result: 0

Query: Does growth inhibition meet or surpass 50% for "CCOC(=O)C(C(=O)OCC)C(=O)c1ccc2c(c1)OCO2" ?
Result: 1

Query: Does growth inhibition meet or surpass 50% for "C/C(=N\NC(=O)C[n+]1ccccc1)c1sc(-c2nc(C)c(/C(C)=N/NC(=O)C[n+]3ccccc3)s2)nc1C" ?
Result: 1

Query: Does growth inhibition meet or surpass 50% for "NNc1ccccc1F" ?
Result: 1

Query: Does growth inhibition meet or surpass 50% for "CN(C)Cc1ccccc1C(=O)C(=O)c1ccccc1CN(C)C" ?
Result: 0

Query: Does growth inhibition meet or surpass 50% for "Cc1nn(-c2ccc(Cl)cc2)c2nc(N)nc(N)c12" ?
Result: 0

Query: Does growth inhibition meet or surpass 50% for "O=[N+]([O-])c1cnc(Sc2cncc[n+]2[O-])s1" ?
Result: 1

Query: Does growth inhibition meet or surpass 50% for "CCCCCCCCCCCC(=O)OCC(C)C" ?
Result: 0

###

test: NCI Yeast Anticancer Drug Screen. Data for the mlh1 rad18 strain (AID 175); conditions: S. cerevisiae mlh1 rad18 strain growth inhibition; at 50.0 µM; stronger effect = higher value
This is part of a sample that, as a whole, favours compounds with a hit. Of some 79,000 tested, about 15% had one in any assay.
Observable: growth inhibition (%)
// note: answer is a bare numeric in %

Query: Return growth inhibition (reported value) for this compound: "COc1ccc(C)c2nc3ccccc3nc12"
Result: 87.7

Query: Return growth inhibition (reported value) for this compound: COC1=CC(=O)c2c(O)c3c(c(O)c2C1=O)OC1(Oc2c(cc4cc(C)oc(=O)c4c2O)CC1O)C3O (centres undefined)
Result: 91

Query: Return growth inhibition (reported value) for this compound: "[Cl-].[La+3].[O-]/N=C(\c1ccccc1)c1ccccn1.[O-]/N=C(\c1ccccc1)c1ccccn1.[O-]/N=C(\c1ccccc1)c1ccccn1"
Result: 59.2

Query: Return growth inhibition (reported value) for this compound: "O=C1C(N2CCOCC2)=C(Cl)C(=O)c2ncccc21"
Result: 89.3

###

test: NCI Yeast Anticancer Drug Screen. Data for the bub3 strain (AID 167); details: S. cerevisiae bub3 mutant strain, at 50.0 µM, stronger effect = higher value
About 79,000 compounds went through this panel and 15% of them were active in at least one assay; those are over-represented in the sample as a whole. Active and inactive are the calls of the source. Rule as the data show it: active = growth inhibition above about 70%; inactive = the rest.
Observable: growth inhibition

Query: Return growth inhibition (reported value) for this molecule: "O=C1C(=O)C2CC3(CC1N2Cc1ccccc1)OCCO3"
Result: 86.5% (active)

Query: Return growth inhibition (reported value) for this molecule: "COc1ccc(N=C2C(=S)N(c3ccc(OC)cc3)/C(=N/S(=O)(=O)c3ccccc3)N2c2ccccc2)cc1"
Result: 1.65% (inactive)

Query: Return growth inhibition (reported value) for this molecule: "CCc1c(C)[nH]c2c([N+](=O)[O-])cccc12"
Result: 96% (active)

Query: Return growth inhibition (reported value) for this molecule: "Nc1ccc(-c2ccc(N)cc2S(=O)(=O)O)c(S(=O)(=O)O)c1"
Result: 1.8% (inactive)

Query: Return growth inhibition (reported value) for this molecule: "O=C1c2ccccc2C(=O)c2cc(O)ccc21"
Result: 80.3% (active)

Query: Return growth inhibition (reported value) for this molecule: Cc1[nH]c2c(C)cccc2c1C1Cc2ccccc2N1 (stereo not drawn)
Result: 98.7% (active)

Query: Return growth inhibition (reported value) for this molecule: "O=C1CSC(=S)N1c1ccc(I)cc1"
Result: 99% (active)

Query: Return growth inhibition (reported value) for this molecule: "Cc1cc([N+](=O)[O-])cc(C)c1OC(=O)Nc1c(Cl)cccc1Cl"
Result: 23.1% (inactive)

Query: Return growth inhibition (reported value) for this molecule: "Cc1nc(N)sc1N=Nc1ccc(Cl)cc1"
Result: 81.8% (active)

Query: Return growth inhibition (reported value) for this molecule: NC1c2ccccc2-c2ccc([N+](=O)[O-])cc21 (stereo not drawn)
Result: -12.2% (inactive)

Query: Return growth inhibition (reported value) for this molecule: O=C(c1ccc(Br)cc1)C1OC12C(=O)Nc1ccccc12 (stereo not drawn)
Result: 99.6% (active)

Query: Return growth inhibition (reported value) for this molecule: "O=C(O)/C(=C/c1ccccc1)c1ccccc1.[Ag]"
Result: 93.7% (active)

Query: Return growth inhibition (reported value) for this molecule: CC=CCOc1cc(NC(=S)OC(C)C)ccc1Cl (mixture of isomers)
Result: 89.7% (active)

Query: Return growth inhibition (reported value) for this molecule: "Cc1cccc[n+]1CC(=O)c1cccc(O)c1"
Result: -13.6% (inactive)

Query: Return growth inhibition (reported value) for this molecule: CCN(CC)CCN(C)c1ccc(CO)c2c1C(=O)c1ccccc1S2=O (stereo not drawn)
Result: 82.4% (active)

Query: Return growth inhibition (reported value) for this molecule: "O=S(=O)(Nc1ccccc1)c1ccccc1C=C(c1ccccc1)c1ccccc1"
Result: 80.3% (active)

Query: Return growth inhibition (reported value) for this molecule: "CCN(CC)CCOc1ccc(C(=C2CCCCC2)c2ccc(OCCN(CC)CC)cc2)cc1"
Result: 76.8% (active)

Query: Return growth inhibition (reported value) for this molecule: "Cc1cc(C)c(N2C(=O)C=CC2=O)c(C)c1"
Result: 99.5% (active)

Query: Return growth inhibition (reported value) for this molecule: "CC(=O)/C(=C\c1cccs1)C(=O)CCN(C)C"
Result: -2.2% (inactive)

Query: Return growth inhibition (reported value) for this molecule: "CCN(CC)c1cc(Nc2c3ccc(Cl)cc3nc3cc(Cl)ccc23)ccc1O"
Result: 0.75% (inactive)

Query: Return growth inhibition (reported value) for this molecule: "CC(=O)Nc1ccc(/C=C2/NC(=S)N(/C=C3\C(=O)Oc4ccccc4C3=O)C2=O)cc1"
Result: 67.2% (inactive)

Query: Return growth inhibition (reported value) for this molecule: S=C1NC2=C(COC/C2=C\c2ccccc2Cl)C(c2ccccc2Cl)N1 (stereo not drawn)
Result: 82% (active)

Query: Return growth inhibition (reported value) for this molecule: CC(=O)OC1COC(N2C(=O)C(=O)c3cc(Br)ccc32)C(OC(C)=O)C1OC(C)=O (stereo not drawn)
Result: 25.4% (inactive)
